Provenance of the data: patent US9133180B2

tested on: HCT-116; assay: Polyploid phenotype in HCT-116 cells; assay type: cell-based, human
EXPERIMENTAL READOUT: [Polyploidy] lowest concentration producing a distinct polyploid phenotype (µM)
# number only, unit µM dropped from output

Illustrative cases are given below, each with its answer.
COMPOUND | TEST VALUE
Cc1cc(C)c2[nH]ccc2c1-c1nc(C(N)=O)c(-c2ccc(N3CCNC(C)(C)C3)cc2)o1 [Example 6] | 0.1
COc1ccc(-c2nc(C(N)=O)c(-c3ccc(N4CCNC(C)(C)C4)cc3)o2)c2cc[nH]c12 [Example 5] | 0.1
CC1(C)CN(c2ccc(-c3oc(-c4ccc(F)c5[nH]ccc45)nc3C(N)=O)cc2)CCN1 [Example 3] | 0.1
CCc1ccc(-c2nc(C(N)=O)c(-c3ccc(N4CCNC(C)(C)C4)cc3)o2)c2cc[nH]c12 [Example 10] | 0.3
CC1(C)CN(c2ccc(-c3oc(-c4cccc5[nH]ccc45)nc3C(N)=O)cc2)CCN1 [Example 11] | 0.1
CC1(C)CN(c2ccc(-c3oc(-c4ccc(Cl)c5[nH]ccc45)nc3C(N)=O)cc2)CCN1 [Example 4] | 0.3

# lookup: Cc1ccc2[nH]ccc2c1-c1nc(C(N)=O)c(-c2ccc(N3CCNC(C)(C)C3)cc2)o1 [Example 2] on HCT-116, [Polyploidy] lowest concentration producing a distinct polyploid phenotype = 0.03

# lookup: Cc1cc(F)c2[nH]ccc2c1-c1nc(C(N)=O)c(-c2ccc(N3CCNC(C)(C)C3)cc2)o1 [Example 7] on HCT-116, [Polyploidy] lowest concentration producing a distinct polyploid phenotype = 0.1

# lookup: CC1(C)CN(c2ccc(-c3oc(-c4c(F)ccc5[nH]ccc45)nc3C(N)=O)cc2)CCN1 [Example 1] on HCT-116, [Polyploidy] lowest concentration producing a distinct polyploid phenotype = 0.3

# lookup: NC(=O)c1nc(-c2cccc3[nH]ccc23)oc1-c1ccc(N2CCNCC2)cc1 [Example M-12, reference compound] on HCT-116, [Polyploidy] lowest concentration producing a distinct polyploid phenotype = 1.0

---

assay: Caco-2 permeability assay; type: in vitro ADME; conditions: human, B2A, read-out: Caco2 B2A Papp
EXPERIMENTAL READOUT: Papp B→A (×10⁻⁶ cm/s)
# number only, unit ×10⁻⁶ cm/s dropped from output

COMPOUND | Papp B→A (×10⁻⁶ cm/s)
COc1ccc(-c2nc(C(N)=O)c(-c3ccc(N4CCNC(C)(C)C4)cc3)o2)c2cc[nH]c12 [Example 5] | 11
Cc1ccc2[nH]ccc2c1-c1nc(C(N)=O)c(-c2ccc(N3CCNC(C)(C)C3)cc2)o1 [Example 2] | 9.91
CC1(C)CN(c2ccc(-c3oc(-c4cccc5[nH]ccc45)nc3C(N)=O)cc2)CCN1 [Example 11] | 12.6

Next, consider the following compound.
Entry Cc1cc(C)c2[nH]ccc2c1-c1nc(C(N)=O)c(-c2ccc(N3CCNC(C)(C)C3)cc2)o1 [Example 6] , Papp B→A reported as 2.08
